# STUDY SYSTEM: Peregrin (Homo sapiens)
# RECORDED CONDITIONS: Compound concentration 20.0 uM, Protein concentration 2.0 uM, Result type QC Liability
Doc: threshold -3 °C (exclusive). Items with ΔTm beneath it return rule met; others return rule not met.

Completed entries (count: 3):
- STRUCTURE SMILES: "CN(C)[C@H]1C[C@H](n2cnc(-c3ccc(F)cn3)c2-c2ccnc3[nH]ccc23)C1"
  CLASSIFICATION: "rule not met"
- STRUCTURE SMILES: "CC1(C)C(=O)N([C@H]2CCc3c(O)cccc32)c2nc(Nc3cccc(CN4CCCC4)c3)ncc21"
  CLASSIFICATION: "rule not met"
- STRUCTURE SMILES: "CC(=O)c1ccc2c(c1)/C(=C(/NC1CCN(C)CC1)c1ccc3c(c1)OCO3)C(=O)N2"
  CLASSIFICATION: "rule not met"

Moving on to another compound below.
Below -3 °C on ΔTm? Entry O=C(CCSCc1ccco1)NNC(=O)N1Cc2ccccc2Oc2ccc(Cl)cc21 rule met

These data points were gathered from ChEMBL document CHEMBL5308504.
